- STUDY_SYSTEM: canine TRPM8 (Canis lupus familiaris)
- Construct: expressed in transfected cells
- Sequence (Q1A7N1 1-1104): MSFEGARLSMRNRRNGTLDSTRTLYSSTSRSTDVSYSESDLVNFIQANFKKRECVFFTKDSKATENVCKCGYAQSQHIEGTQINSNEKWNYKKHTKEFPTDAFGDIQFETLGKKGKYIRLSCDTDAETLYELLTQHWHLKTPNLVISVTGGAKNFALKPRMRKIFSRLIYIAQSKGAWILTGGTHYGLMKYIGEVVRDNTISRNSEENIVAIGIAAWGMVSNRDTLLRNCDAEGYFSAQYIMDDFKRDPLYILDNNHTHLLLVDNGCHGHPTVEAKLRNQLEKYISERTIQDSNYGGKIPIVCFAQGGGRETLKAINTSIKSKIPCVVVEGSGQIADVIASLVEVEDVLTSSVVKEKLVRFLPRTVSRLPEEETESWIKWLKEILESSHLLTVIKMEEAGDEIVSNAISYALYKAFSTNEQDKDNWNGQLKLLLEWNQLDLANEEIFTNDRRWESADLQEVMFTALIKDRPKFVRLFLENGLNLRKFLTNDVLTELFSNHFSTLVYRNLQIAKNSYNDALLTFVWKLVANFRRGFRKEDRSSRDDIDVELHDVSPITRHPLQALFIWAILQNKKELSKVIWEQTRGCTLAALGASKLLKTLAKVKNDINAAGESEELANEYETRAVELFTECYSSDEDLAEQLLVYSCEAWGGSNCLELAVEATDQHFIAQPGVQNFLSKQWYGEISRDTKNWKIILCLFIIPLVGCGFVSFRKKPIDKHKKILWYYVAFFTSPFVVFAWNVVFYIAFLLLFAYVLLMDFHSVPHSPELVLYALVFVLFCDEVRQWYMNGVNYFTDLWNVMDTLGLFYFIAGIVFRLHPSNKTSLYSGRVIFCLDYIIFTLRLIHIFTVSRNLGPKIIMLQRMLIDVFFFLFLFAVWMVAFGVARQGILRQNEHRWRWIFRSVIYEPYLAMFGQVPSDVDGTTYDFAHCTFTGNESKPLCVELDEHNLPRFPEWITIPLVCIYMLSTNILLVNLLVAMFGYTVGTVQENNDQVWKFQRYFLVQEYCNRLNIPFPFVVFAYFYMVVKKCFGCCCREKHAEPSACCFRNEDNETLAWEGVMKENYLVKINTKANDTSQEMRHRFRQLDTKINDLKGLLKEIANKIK
- ASSAY_TEXT: In vitro canine TRPM8 functional assay (Ca2+-sensitive dye, FLIPR/FDSS, icilin activation)
- Assay type: cell-based
- CONDITION_DETAILS: 1 μM compound; HEK293 cells expressing canine TRPM8, icilin activation
- Procedure: The functional activity of compounds of Formula (I) was determined by measuring changes in intracellular calcium concentration using a Ca^2+-sensitive fluorescent dye. The changes in fluorescent signal were monitored by a fluorescence plate reader, either a FLIPR™ (Molecular Devices) or FDSS (Hamamatsu). […] Basal FI was subtracted prior to normalizing data to percent of maximal response. […] Finally, the EC50 and IC50 values were calculated with the best-fit dose curve determined by GraphPad Prism.

{"columns": ["COMPOUND", "% I (1 μM) [%]"],
 "data": [
  ["CCOP(=O)(OCC)C(Cc1cc(C(F)(F)F)ccc1C(F)(F)F)c1sc2ccccc2c1C (centres unmarked)", 25],
  ["CCOP(=O)(Cc1cc2ccccc2s1)OCc1ccccc1 (centres unmarked)", 14],
  ["CC(C)OP(=O)(OC(C)C)C(Cc1ccc(F)c(F)c1)c1cc2ccccc2o1 (centres unmarked)", 102],
  ["CCOP(=O)(OCC)C(Cc1cccc(F)c1F)c1sc2ccccc2c1C (centres unmarked)", 100],
  ["CC(C)OP(=O)(OC(C)C)C(Cc1ccc(F)c(C(F)(F)F)c1)c1cc2ccccc2s1 (centres unmarked)", 103]
]}

* * *

- STUDY_SYSTEM: canine TRPM8 (Canis lupus familiaris)
- Construct: expressed in transfected cells
- ASSAY_TEXT: In vitro canine TRPM8 functional assay (Ca2+-sensitive dye, FLIPR/FDSS, icilin activation)
- Type: cell-based
- CONDITION_DETAILS: 0.5 μM compound; HEK293 cells expressing canine TRPM8, icilin activation
- Method: The functional activity of compounds of Formula (I) was determined by measuring changes in intracellular calcium concentration using a Ca^2+-sensitive fluorescent dye. The changes in fluorescent signal were monitored by a fluorescence plate reader, either a FLIPR™ (Molecular Devices) or FDSS (Hamamatsu). […] Basal FI was subtracted prior to normalizing data to percent of maximal response. […] Finally, the EC50 and IC50 values were calculated with the best-fit dose curve determined by GraphPad Prism.
Parameter: % I (0.5 μM). Scope: all listed entries.
QUANTITY_MEASURED: % I (0.5 μM) (%)

{"columns": ["COMPOUND", "QUANTITY_MEASURED", "READING_UNIT", "OBSERVED"],
 "data": [
  ["CC(C)OP(=O)(OC(C)C)C(Cc1cccc(SC(F)(F)F)c1)c1sc2ccccc2c1Br (centres unmarked) [Cpd 250]", "% I (0.5 μM)", "%", 103],
  ["CC(C)OP(=O)(OC(C)C)C(Cc1ccc(F)c(C(F)(F)F)c1)c1sc2ccccc2c1Cl (centres unmarked) [Cpd 188]", "% I (0.5 μM)", "%", 103],
  ["CCOP(=O)(OCC)C(Cc1ccc(SC)cc1)c1sc2ccccc2c1Cl (racemic) [Cpd 299]", "% I (0.5 μM)", "%", 101],
  ["CCOP(=O)(OCC)C(Cc1cc(C(F)(F)F)ccc1Cl)c1sc2ccccc2c1Br (racemic) [Cpd 148]", "% I (0.5 μM)", "%", 103],
  ["CC(C)OP(=O)(OC(C)C)C(Cc1ccc(S(=O)(=O)C(F)(F)F)cc1)c1sc2ccccc2c1Br (centres unmarked) [Cpd 263]", "% I (0.5 μM)", "%", 103],
  ["CC(=O)n1c(C(Cc2ccc(F)c(C(F)(F)F)c2)P(=O)(OC(C)C)OC(C)C)c(Br)c2ccccc21 (centres unmarked) [Cpd 331]", "% I (0.5 μM)", "%", 101],
  ["CCOP(=O)(OCC)C(Cc1cc(F)cc(C(F)(F)F)c1)c1sc2ccccc2c1Cl (centres unmarked) [Cpd 278]", "% I (0.5 μM)", "%", 103],
  ["CCOP(=O)(OCC)C(Cc1ccc(C(F)(F)F)c(F)c1)c1sc2ccccc2c1Br (racemic) [Cpd 144]", "% I (0.5 μM)", "%", 101],
  ["CCOP(=O)(OCC)C(Cc1cc(C(F)(F)F)cc(C(F)(F)F)c1)c1sc2ccccc2c1Cl (racemic) [Cpd 282]", "% I (0.5 μM)", "%", 100],
  ["CC(C)OP(=O)(OC(C)C)C(Cc1cc(O)c(Cl)cc1F)c1sc2ccccc2c1Br (racemic) [Cpd 232]", "% I (0.5 μM)", "%", 99],
  ["COc1ccc(CC(c2sc3ccccc3c2Cl)P(=O)(OC(C)C)OC(C)C)cc1C(F)(F)F (centres unmarked) [Cpd 176]", "% I (0.5 μM)", "%", 104],
  ["CCOP(=O)(OCC)C(Cc1cc(C(F)(F)F)ccc1F)c1sc2ccccc2c1Cl (racemic) [Cpd 286]", "% I (0.5 μM)", "%", 102],
  ["CCOP(=O)(OCC)C(Cc1ccc(OC(F)F)cc1)c1sc2ccccc2c1Br (centres unmarked) [Cpd 311]", "% I (0.5 μM)", "%", 102],
  ["CC(C)OP(=O)(OC(C)C)C(Cc1c(F)c(F)c(O)c(F)c1F)c1sc2ccccc2c1Br (racemic) [Cpd 229]", "% I (0.5 μM)", "%", 95],
  ["CC(C)OP(=O)(OC(C)C)C(Cc1ccc(Cl)c(C(F)(F)F)c1)c1sc2ccccc2c1Cl (racemic) [Cpd 167]", "% I (0.5 μM)", "%", 104],
  ["CCOP(=O)(OCC)C(Cc1cccc(C(F)(F)F)c1)c1sc2ccccc2c1Br (centres unmarked) [Cpd 141]", "% I (0.5 μM)", "%", 100],
  ["COc1cccc(CC(c2sc3ccccc3c2Br)P(=O)(OC(C)C)OC(C)C)c1 (centres unmarked) [Cpd 317]", "% I (0.5 μM)", "%", 102],
  ["COc1c(F)c(F)c(CC(c2sc3ccccc3c2Br)P(=O)(OC(C)C)OC(C)C)c(F)c1F (racemic) [Cpd 161]", "% I (0.5 μM)", "%", 103],
  ["CCOP(=O)(OCC)C(Cc1cccc(C(F)(F)F)c1Cl)c1sc2ccccc2c1Cl (racemic) [Cpd 280]", "% I (0.5 μM)", "%", 101],
  ["CC(C)OP(=O)(OC(C)C)C(Cc1cccc(C(F)(F)F)c1)c1sc2ccccc2c1Cl (racemic) [Cpd 170]", "% I (0.5 μM)", "%", 103],
  ["CCOP(=O)(OCC)C(Cc1ccc(Cl)c(C(F)(F)F)c1)c1sc2ccccc2c1Br (centres unmarked) [Cpd 139]", "% I (0.5 μM)", "%", 102],
  ["CC(C)OP(=O)(OC(C)C)C(Cc1cccc(O)c1)c1sc2ccccc2c1Br (centres unmarked) [Cpd 325]", "% I (0.5 μM)", "%", 97],
  ["CCOP(=O)(OCC)C(Cc1ccc(F)c(F)c1)c1sc2ccccc2c1-c1cccc(C(=O)OC)c1 (racemic) [Cpd 219]", "% I (0.5 μM)", "%", 68],
  ["CCOP(=O)(OCC)C(Cc1ccccc1Cl)c1sc2ccccc2c1Cl (centres unmarked) [Cpd 269]", "% I (0.5 μM)", "%", 102],
  ["CCOP(=O)(OCC)C(Cc1cc(Cl)ccc1F)c1sc2ccccc2c1Br (racemic) [Cpd 307]", "% I (0.5 μM)", "%", 103],
  ["CC(C)OP(=O)(OC(C)C)C(Cc1ccc(F)c(C(F)(F)F)c1)c1c(Br)c2ccccc2n1C(=O)OC(C)(C)C (centres unmarked) [Cpd 327]", "% I (0.5 μM)", "%", 44],
  ["CCOP(=O)(OCC)C(Cc1cc(OC)cc(OC)c1)c1sc2ccccc2c1Br (centres unmarked) [Cpd 319]", "% I (0.5 μM)", "%", 103],
  ["CC(C)OP(=O)(OC(C)C)C(Cc1cccc(C(F)(F)F)c1Cl)c1sc2ccccc2c1Cl (centres unmarked) [Cpd 177]", "% I (0.5 μM)", "%", 96],
  ["CC(C)OP(=O)(OC(C)C)C(Cc1ccc(F)c(Cl)c1)c1sc2ccccc2c1Br (racemic) [Cpd 248]", "% I (0.5 μM)", "%", 104],
  ["CCOP(=O)(OCC)C(Cc1ccc(Cl)c(F)c1)c1sc2ccccc2c1Br (centres unmarked) [Cpd 258]", "% I (0.5 μM)", "%", 102],
  ["CCOP(=O)(OCC)C(Cc1cc(F)cc(Cl)c1)c1sc2ccccc2c1Br (centres unmarked) [Cpd 259]", "% I (0.5 μM)", "%", 103],
  ["CC(C)OP(=O)(OC(C)C)C(Cc1ccc(F)c(Cl)c1)c1sc2ccccc2c1Cl (centres unmarked) [Cpd 253]", "% I (0.5 μM)", "%", 103]
]}
